// reported protein stability index per item
B1: PHTF1 (parent)
chain: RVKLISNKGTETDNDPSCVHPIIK

Variants of: B1
Assay: protein stability index of a GFP-peptide fusion (GPS, HEK-293T) (PSI 1-6); higher = more stable;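 further: lentivirally expressed fusions sorted by FACS into six bins by GFP to DsRed ratio, PSI derived from sequencing read proportions per bin multiplied by bin number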
Details: c terminus: a fixed tail appended
The response must contain the number and no unit.

// solved cases for protein stability index follow
[[record]]
seq_string = "RVDLISNKGTETDNDPSCVHPIIK"
value_measured = 4.48

[[record]]
seq_string = "RVKLISNKGTETDNDPSCMHPIIK"
value_measured = 3.88

[[record]]
seq_string = "RGKLISNKGTETDNDPSCVHPIIK"
value_measured = 3.52

[[record]]
seq_string = "RVKLISNKGTETDNDPSNVHPIIK"
value_measured = 4.5

[[record]]
seq_string = "RVKLISNKGTETDNDPSCVHPIIS"
value_measured = 3.82


// query protein stability index value for entry `RVALISNKGTETDNDPSCVHPIIK`
4.38

// query protein stability index value for entry `RVKLIHNKGTETDNDPSCVHPIIK`
4.03

// query protein stability index value for entry `RVKLISNKGTETDNDPSCVHPTIK`
4.51

// query protein stability index value for entry `RVKLISNKGTETANDPSCVHPIIK`
3.72

// query protein stability index value for entry `RVKLISNKGTETDNDPSHVHPIIK`
4.49

// query protein stability index value for entry `RVKLISNKGTETDNDPSCVHPIRK`
4.6
